# ASSAYED_SYSTEM: S. gregaria-Na^+/K^+-ATPase (Schistocerca gregaria)
# Sequence (A0A8E5JSN5 1-1039): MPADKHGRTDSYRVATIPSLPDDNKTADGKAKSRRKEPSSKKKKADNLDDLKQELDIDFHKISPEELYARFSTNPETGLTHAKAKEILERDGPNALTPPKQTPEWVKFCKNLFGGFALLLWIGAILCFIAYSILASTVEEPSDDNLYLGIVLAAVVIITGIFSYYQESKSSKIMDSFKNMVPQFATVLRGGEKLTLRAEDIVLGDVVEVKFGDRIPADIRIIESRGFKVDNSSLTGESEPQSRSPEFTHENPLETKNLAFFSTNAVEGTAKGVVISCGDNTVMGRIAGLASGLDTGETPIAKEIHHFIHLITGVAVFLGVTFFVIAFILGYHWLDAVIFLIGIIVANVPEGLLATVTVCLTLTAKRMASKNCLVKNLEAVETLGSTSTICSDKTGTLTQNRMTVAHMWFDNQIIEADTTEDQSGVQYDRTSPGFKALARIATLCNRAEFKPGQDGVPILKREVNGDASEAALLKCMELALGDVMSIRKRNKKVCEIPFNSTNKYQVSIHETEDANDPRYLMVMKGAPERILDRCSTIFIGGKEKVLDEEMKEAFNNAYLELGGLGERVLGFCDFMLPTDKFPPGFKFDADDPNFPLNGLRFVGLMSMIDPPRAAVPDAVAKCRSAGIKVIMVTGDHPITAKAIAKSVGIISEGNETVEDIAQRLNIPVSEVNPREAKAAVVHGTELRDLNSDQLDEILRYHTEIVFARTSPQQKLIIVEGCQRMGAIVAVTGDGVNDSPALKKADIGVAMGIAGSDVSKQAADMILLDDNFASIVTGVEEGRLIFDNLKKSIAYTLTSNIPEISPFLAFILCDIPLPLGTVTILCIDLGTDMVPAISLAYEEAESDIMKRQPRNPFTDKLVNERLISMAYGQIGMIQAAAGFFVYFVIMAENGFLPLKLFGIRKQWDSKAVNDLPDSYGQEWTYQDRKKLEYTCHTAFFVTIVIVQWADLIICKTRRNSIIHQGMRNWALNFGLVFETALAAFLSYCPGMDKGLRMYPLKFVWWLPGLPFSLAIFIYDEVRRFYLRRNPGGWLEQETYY
# Assay type: biochemical
# CONDITION: read-out: IC50 S. gregaria- Na^+/K^+-ATPase; Na+/K+-ATPase extracted from locust recta
Define the label as True when IC50 is strictly less than 1000 nM and as False in all remaining cases.

Worked set:
MOLECULE	ASSAYED_SYSTEM	DISCRETE_LABEL
C[C@]12CC[C@H](O)C[C@H]1CC[C@@H]1[C@@H]2CC[C@]2(C)[C@@H](C3=CC(=O)OC3)CC[C@]12O [digitoxigenin]	S. gregaria-Na^+/K^+-ATPase (Schistocerca gregaria)	False
CO[C@H]1C[C@H](O[C@H]2CC[C@@]3(C)[C@H](CC[C@@H]4[C@@H]3CC[C@]3(C)[C@@H](C5=CC(=O)OC5)[C@@H](OC(C)=O)C[C@]43O)C2)O[C@@H](C)[C@@H]1O [oleandrin]	S. gregaria-Na^+/K^+-ATPase (Schistocerca gregaria)	True
C[C@]12CC[C@H](O)C[C@H]1CC[C@@H]1[C@@H]2C[C@@H](O)[C@]2(C)[C@@H](C3=CC(=O)OC3)CC[C@]12O [digoxigenin]	S. gregaria-Na^+/K^+-ATPase (Schistocerca gregaria)	False

Now, please, on to the next molecule.
Just wondering, is IC50 of C[C@H]1O[C@@H](O[C@H]2[C@@H](O)C[C@H](O[C@H]3[C@@H](O)C[C@H](O[C@H]4CC[C@@]5(C)[C@H](CC[C@@H]6[C@@H]5CC[C@]5(C)[C@@H](C7=CC(=O)OC7)CC[C@]65O)C4)O[C@@H]3C)O[C@@H]2C)C[C@H](O)[C@@H]1O [digitoxin, reference compound] below 1000 nM?
False
